Test: soluble on expression in E. coli; label from the status in PepcDB or PDB records

>  <ORDERED RESIDUES>
MTKITVLSGKGGTGKTTVSVNMAKALSESYRVQLLDADVEEPNDHIFFNVDVSFEEPVHLMIPVVDNSVCIRCGECASTCQFGAISVFPSGTFVFESLCHGCGACSIMCPVNAISERPKEIGKIRFGTADGNISFGMGILNIGERTGVPVIRKLKKHIDEKADVVIVDAPPGTSCPVVESLRNTDFALLVTEPTAFGLHDLKLAVELTKEMGIPSGIVVNRYIPGNTIIEEFADEEGIPVLLKIPFKREIASLCAEGKLIVEAFQDMKKDFLELFEKIEVMVRLEHHHHHH

>  <soluble on expression in E. coli>
soluble

$$$$
>  <ORDERED RESIDUES>
MSMFGKVAADVLGLSDIGSVIQPKDYDKVDADDYVMHEDGEKIYFLIKSKSDEYCFTNRALIHLDGTSAASKKRTLRRYDYYKHPISDVSLETAGTVDLDAEIKFKIGPHSYSIDVHKKHIEELKDLYKSLLAIAEICHENEMKFHYAERSLELATKVFANMRGDGANVSADFQAVNEYAFRWLTEAKKNYTVKDFGFVFDKYIQQ

>  <soluble on expression in E. coli>
not soluble

$$$$
>  <ORDERED RESIDUES>
MTDQERIELQKNNPLHGLKLETLLQELVDFYGWDILDTAMRFNCFHTKPSIASSVKYLNKTEWAREKLENFYLYRFKRMPRASSEEFTLPPRARTFPHGLHPKEPMALTVDSILKSQAKAASAHKERTSRSRYNQR

>  <soluble on expression in E. coli>
not soluble

$$$$
>  <ORDERED RESIDUES>
GGSVIVIDSKAAWDAQLAKGKEEHKPIVVDFTATWCGPCKMIAPLFETLSNDYAGKVIFLKVDVDAVAAVAEAAGITAMPTFHVYKDGVKADDLVGASQDKLKALVAKHAAA

>  <soluble on expression in E. coli>
soluble

$$$$

====

Experiment: soluble on expression in E. coli; label from the status in PepcDB or PDB records

>  <ORDERED RESIDUES>
MGSDKIHHHHHHMVNHTQFRQWGRKVIDIEKAALDNLYQYVDSVEFDQACQLIMQCKGKVIVMGMGKSGHIGNKISATFASTGTPAFFVHPGEASHGDLGALAKNDIVLAISNSGESSEILTLMPVIQRMGVPVIAVTGKPDSNMARLSKIHLCIQVQEEACPLGLAPTSSTTATLAMGDALAIALLQAKGFTRDDFALSHPGGSLGRKLLLKVDDVMHQGDDLPIVNDDICITDALYEISKKGLGMTAVVDHASKLVGIFTDGDLRRVIDADVNLRTTSIAHVMTKNCVTSPAGILAAQALQIMDEKSINGLIVVNEKHQPIGALNMLDMVKAGVI

>  <soluble on expression in E. coli>
not soluble

$$$$
>  <ORDERED RESIDUES>
MGSDKIHHHHHHMERPILGKYIIKGKIILETGLRIGGQELGVNIGGIDNPVIRNPLTGEPYIPGSSVKGKMRSLMERLLNLDISGNKVRRHECEERECKVCRVFGSTSKEGNNIPSRLLVRDAFLTEDSKTKLLSMETDLPYTEWKTENALDRVTCKADPRSFERIPAGAEFEFEIIYTAENEKHIKEDLENIATALELLEDDYLGGNGSRGYGKVKFSIEKVIFKSADYYKGEGTPVEKEVKGGVEGFKKAIPEIVKG

>  <soluble on expression in E. coli>
not soluble

$$$$
